The measurements presented in this section are drawn from PubChem BioAssay (NCI).

# Tested on: OVCAR-3 ovarian
# Protocol details: NCI-60 one-dose screen, 48 h (100 = growth as untreated, 0 = no growth, -100 = all killed)
# Experimental conditions: 10 µM unless noted
The panel holds about 83,000 compounds, 20% with a hit somewhere; the sample as a whole holds those more often.
Classify on growth using small value: < 60%; mid value: ≥ 60% and < 90%; large value: ≥ 90%

Query :: Kindly identify the class of `CCC(=O)Oc1cc(/C=C/C(=O)O[C@H]2C[C@H]3CN4CCc5c([nH]c6cc(OC)ccc56)[C@@H]4C[C@@H]3[C@@H](C(=O)OC)[C@@H]2OC)ccc1OC` .
Result :: mid value

Query :: Kindly identify the class of `COc1ccc2c(c1)NC(=O)CN2c1nc(NC2CC2)nc2ccccc12` .
Result :: small value

Query :: Kindly identify the class of `COc1cc(/C=C\c2cc(OC)c(OC)c(OC)c2)cc(N/C=C\C(=O)c2c[nH]c3ccccc23)c1OC` .
Result :: small value

Query :: Kindly identify the class of `COc1cc(-c2csc(NC(=O)c3cc(C(F)(F)F)cc(C(F)(F)F)c3)n2)cc(OC)c1OC` .
Result :: small value

Query :: Kindly identify the class of `CCOC(=O)CC/C(C)=N\Nc1ccc([N+](=O)[O-])cc1` .
Result :: mid value

Query :: Kindly identify the class of `COc1ccc(/C=C/C(=O)OCC(=O)NNC(=O)c2ccccc2)cc1OC` .
Result :: large value

Query :: Kindly identify the class of `CCCCCC(=O)OCc1ccccc1` .
Result :: large value

Query :: Kindly identify the class of CCOC(=O)C1=C(CSC(=S)N(C2CCCCC2)C2CCCCC2)N(C)C(=O)NC1c1ccccc1 (stereo not given) .
Result :: small value

Query :: Kindly identify the class of `CCOc1ccc(/C=C/C=N/NC(N)=S)cc1` .
Result :: mid value

Query :: Kindly identify the class of `O=C(O)Cc1ccc2c(c1)Cc1cccnc1O2` .
Result :: large value

---

# Tested on: HCT-15 colon
# Protocol details: NCI-60 one-dose screen, 48 h (100 = growth as untreated, 0 = no growth, -100 = all killed)
# Experimental conditions: 10 µM unless noted
Compounds without any hit were thinned out: in the full panel of roughly 83,000, 20% have a hit.
Would you mind telling me the reported growth of each entry?
Supply the numeric figure in %, leaving out any unit text.

Query :: Tell me the measured growth of `COc1ccc(-c2cn[nH]c2-c2cc(OC)c3c(c2)OCCO3)cc1` , please.
Result :: 20.7

Query :: Tell me the measured growth of CCC(c1ccc(OC)cc1)C(CC)c1ccc(O)c(CN2CCCC2)c1 (stereo unspecified) , please.
Result :: 1.62

Query :: Tell me the measured growth of `Clc1ccc([I+]c2ccc(Cl)cc2Cl)c(Cl)c1` , please.
Result :: 30.2

Query :: Tell me the measured growth of `Clc1ccc(-c2nc(-c3ccco3)cn3ccnc23)cc1` , please.
Result :: 50.1

Query :: Tell me the measured growth of `CCO/C=N/NC(=O)c1ccncc1` , please.
Result :: 108

Query :: Tell me the measured growth of `O=[N+]([O-])c1c(S(=O)(=O)O)cc2cc(S(=O)(=O)O)ccc2c1[N+](=O)[O-]` , please.
Result :: 101

Query :: Tell me the measured growth of `O=S(=O)(NCCCNc1nccc(-c2c(-c3ccc(O)cc3)nc3sccn23)n1)c1ccc(F)cc1` , please.
Result :: 10

Query :: Tell me the measured growth of `ClC1=C(Cl)C(Cl)=C(Cl)C1=Cc1ccc(Cl)cc1Cl` , please.
Result :: -56.5

Query :: Tell me the measured growth of `CCc1cccc(C)c1NC(=O)c1sc2nc3c(cc2c1N)C(=O)CCC3` , please.
Result :: 32.8

Query :: Tell me the measured growth of `COc1cc(Cn2c(SCCC(=O)Nc3ccc(F)cc3)nc3ccccc3c2=O)cc(OC)c1OC` , please.
Result :: 79

Query :: Tell me the measured growth of `COc1ccc(/C=C/C(=O)c2cccc(B(O)O)c2)cc1O` , please.
Result :: 12

Query :: Tell me the measured growth of `Cc1ccc2c(c1)C(=O)C(c1c(-c3[nH]c(=O)c4ccc(C)cc4c3O)c(O)c3ccccc3c1O)=NC2=O` , please.
Result :: 13.7

Query :: Tell me the measured growth of `COc1cc(OC)c(C(=O)/C=C/c2ccc(C(F)(F)F)cc2)c(OC)c1` , please.
Result :: 29.4

Query :: Tell me the measured growth of `CC(C)C[C@H](NC(=O)Cn1ccc(NCc2ccccc2)cc1=O)B(O)O` , please.
Result :: 23.5

Query :: Tell me the measured growth of `CC(=O)Nc1nc(C(=O)N2N=C(C)/C(=C/c3ccc(Cl)cc3)C2=O)cs1` , please.
Result :: 100

Query :: Tell me the measured growth of `CC[C@H](C)[C@H]1NC(=O)[C@@H](N[C@](C)(O)[C@@H](N)CC(C)C)[C@@H](C)OC(=O)[C@H](Cc2ccc(OC)cc2)N(C)C(=O)[C@@H]2CCCN2C(=O)[C@H](CC(C)C)NC(=O)[C@@H](C)C(=O)[C@H](C(C)C)OC(=O)C[C@@H]1O` , please.
Result :: 0.591
